Tested on: NCI-H1651;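 further: Read-out is a cell viability assay, with IC50 expressing inhibition of NCI-H1651 cell growth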
test.protocol: cells
Assay type: functional, cell-based, Homo sapiens
assay.conditions: nci-h1651
Description: SANGER: Inhibition of human NCI-H1651 cell growth in a cell viability assay.
reported.endpoint: IC50

Query: # input compound: Cc1cc([C@@H](C)Nc2ccccc2C(=O)O)c2nc(N3CCOCC3)cc(=O)n2c1 [AZD-6482] ; wanted: its IC50
Reply: > 5.12 µM

====

System: DSH1;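 further: growth inhibition of human DSH1 cells, measured with a cell viability readout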
test.protocol: cells
Format: functional, cell-based, Homo sapiens
assay.conditions: Homo sapiens, DSH1
Description: SANGER: Inhibition of human DSH1 cell growth in a cell viability assay.
pIC50: −log10 of the molar value.
reported.endpoint: pIC50

Query: # input compound: "Cc1ccc(Nc2nccc(N(C)c3ccc4c(C)n(C)nc4c3)n2)cc1S(N)(=O)=O" ; wanted: its pIC50
Reply: < 5.10

Query: And what about the compound "COc1ccc(C2=N[C@@H](c3ccc(Cl)cc3)[C@@H](c3ccc(Cl)cc3)N2C(=O)N2CCNC(=O)C2)c(OC(C)C)c1" ?
Reply: < 5.10

Query: And what about the compound "CC(=O)O[C@@]12CO[C@@H]1C[C@H](O)[C@@]1(C)C(=O)[C@H](O)C3=C(C)[C@@H](OC(=O)[C@H](O)[C@@H](NC(=O)OC(C)(C)C)c4ccccc4)C[C@@](O)([C@@H](OC(=O)c4ccccc4)[C@H]21)C3(C)C" ?
Reply: < 8.00

Query: And what about the compound "C=CCNC1=C2C[C@@H](C)C[C@H](OC)[C@H](O)[C@@H](C)/C=C(\C)[C@H](OC(N)=O)[C@@H](OC)/C=C\C=C(/C)C(=O)NC(=CC1=O)C2=O" ?
Reply: 7.42

Query: And what about the compound "O=c1cc(-c2cccc3c2Sc2ccccc2S3)oc(N2CCOCC2)c1" ?
Reply: < 5.00

Query: And what about the compound "C=CCc1cccc(/C=N/NC(=O)CN2CCN(Cc3ccccc3)CC2)c1O" ?
Reply: < 5.59

====

System: MV4-11;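 further: cell viability readout measuring growth inhibition of human MV-4-11 cells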
test.protocol: cells
Assay type: functional, cell-based, MV-4-11
assay.conditions: Homo sapiens
Description: SANGER: Inhibition of human MV-4-11 cell growth in a cell viability assay.
Provide the reported pIC50 of each item.
Interpret pIC50 as the negative base-10 log of the concentration measured in mol/L.

Query: # input molecule: O=C(c1cc(Cc2n[nH]c(=O)c3ccccc23)ccc1F)N1CCN(C(=O)C2CC2)CC1 [OLAPARIB] ; wanted: its pIC50
Reply: 5.38

Query: And what about the molecule COc1ccc(C2=N[C@@H](c3ccc(Cl)cc3)[C@@H](c3ccc(Cl)cc3)N2C(=O)N2CCNC(=O)C2)c(OC(C)C)c1 [NUTLIN-3] ?
Reply: 6.21

Query: And what about the molecule CC(=O)O[C@@]12CO[C@@H]1C[C@H](O)[C@@]1(C)C(=O)[C@H](O)C3=C(C)[C@@H](OC(=O)[C@H](O)[C@@H](NC(=O)OC(C)(C)C)c4ccccc4)C[C@@](O)([C@@H](OC(=O)c4ccccc4)[C@H]21)C3(C)C [DOCETAXEL] ?
Reply: 8.76

Query: And what about the molecule CO[C@H]1C[C@@H]2CC[C@@H](C)[C@@](O)(O2)C(=O)C(=O)N2CCCC[C@H]2C(=O)O[C@H]([C@H](C)C[C@@H]2CC[C@@H](O)[C@H](OC)C2)CC(=O)[C@H](C)/C=C(\C)[C@@H](O)[C@@H](OC)C(=O)[C@H](C)C[C@H](C)/C=C/C=C/C=C/1C [SIROLIMUS] ?
Reply: 7.08

Query: And what about the molecule COc1cc([C@@H]2c3cc4c(cc3[C@@H](O[C@@H]3O[C@@H]5CO[C@@H](C)O[C@H]5[C@H](O)[C@H]3O)[C@H]3COC(=O)[C@H]23)OCO4)cc(OC)c1O [ETOPOSIDE] ?
Reply: 6.82

Query: And what about the molecule CN(Cc1cnc2nc(N)nc(N)c2n1)c1ccc(C(=O)N[C@@H](CCC(=O)O)C(=O)O)cc1 [METHOTREXATE] ?
Reply: 7.71

Query: And what about the molecule COc1cc(F)c(F)c(Nc2ccc(I)cc2F)c1NS(=O)(=O)C1(CC(O)CO)CC1 (stereo not drawn) ?
Reply: 6.09

These entries and their values trace back to ChEMBL document CHEMBL1201861.
